TARGET UNDER TEST: Prostaglandin G/H synthase 2 (Homo sapiens, UniProt P35354)
Sequence (P35354 whole entry): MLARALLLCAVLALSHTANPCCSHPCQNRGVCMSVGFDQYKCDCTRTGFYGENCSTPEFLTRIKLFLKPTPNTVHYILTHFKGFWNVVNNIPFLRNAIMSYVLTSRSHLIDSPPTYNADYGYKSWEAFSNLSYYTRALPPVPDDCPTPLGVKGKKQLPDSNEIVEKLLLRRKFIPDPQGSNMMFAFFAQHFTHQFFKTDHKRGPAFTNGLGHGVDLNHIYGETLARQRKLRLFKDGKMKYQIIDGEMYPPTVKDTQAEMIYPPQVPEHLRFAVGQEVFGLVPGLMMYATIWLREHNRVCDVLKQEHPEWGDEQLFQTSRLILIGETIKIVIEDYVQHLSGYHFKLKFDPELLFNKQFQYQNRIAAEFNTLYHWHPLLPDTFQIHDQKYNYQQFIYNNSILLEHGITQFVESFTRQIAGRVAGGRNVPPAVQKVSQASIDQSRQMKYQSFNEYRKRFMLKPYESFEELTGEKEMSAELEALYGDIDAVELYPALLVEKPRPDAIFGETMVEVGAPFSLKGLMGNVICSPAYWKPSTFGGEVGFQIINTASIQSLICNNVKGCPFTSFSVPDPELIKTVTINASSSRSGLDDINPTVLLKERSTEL
ASSAY DETAILS: Inhibition of COX2 in LPS-induced monocyte assessed as PGE2 production in human whole blood
ENDPOINT LABEL: IC50 (nM)
Report the value in nM with no unit label.

Prompt line: Which IC50 value is on record for CCOC(=O)Cc1cc(-c2ccc(S(C)(=O)=O)cc2)n(-c2cccc(F)c2)c1C ?
Response line: 2100

---

TARGET UNDER TEST: Prostaglandin G/H synthase 2 (Mus musculus)
Sequence (Q05769 whole entry): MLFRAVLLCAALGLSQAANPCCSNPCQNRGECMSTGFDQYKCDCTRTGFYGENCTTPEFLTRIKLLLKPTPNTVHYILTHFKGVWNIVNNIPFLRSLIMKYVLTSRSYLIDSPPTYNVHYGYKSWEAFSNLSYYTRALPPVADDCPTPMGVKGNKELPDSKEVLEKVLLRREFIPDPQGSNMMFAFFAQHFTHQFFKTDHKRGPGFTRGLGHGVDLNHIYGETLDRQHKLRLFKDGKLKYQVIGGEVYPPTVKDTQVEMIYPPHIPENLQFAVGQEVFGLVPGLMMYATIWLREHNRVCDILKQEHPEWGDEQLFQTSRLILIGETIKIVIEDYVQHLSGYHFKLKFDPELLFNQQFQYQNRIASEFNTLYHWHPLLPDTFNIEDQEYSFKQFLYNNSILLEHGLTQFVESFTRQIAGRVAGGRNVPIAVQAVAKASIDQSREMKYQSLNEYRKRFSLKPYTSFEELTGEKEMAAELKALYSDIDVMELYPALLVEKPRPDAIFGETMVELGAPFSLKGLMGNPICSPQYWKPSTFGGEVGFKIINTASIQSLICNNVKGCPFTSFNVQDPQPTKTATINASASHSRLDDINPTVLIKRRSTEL
The following molecules are shown together with reported pIC50 values.
In simple prose, pIC50 is minus the logarithm base ten of a concentration in moles per litre.

# count of solved cases: 3
INSERT INTO assay_data (compound_string, recorded_result) VALUES
  ('CCOC(=O)Cc1cc(-c2ccc(F)cc2)n(-c2ccc(S(C)(=O)=O)cc2)c1C', 6.40),
  ('CCOC(=O)C(=O)c1cc(-c2ccc(S(C)(=O)=O)cc2)n(-c2ccc(F)c(F)c2)c1C', 5.08),
  ('CCOC(=O)C(=O)c1cc(-c2ccc(S(C)(=O)=O)cc2)n(-c2ccc(F)cc2)c1C', 4.96);

Please examine the following record next.
Prompt line: Which pIC50 value is on record for CCOC(=O)Cc1cc(-c2ccc(S(C)(=O)=O)cc2)n(-c2ccc(OC)cc2)c1C ?
Response line: 7.59
